{"query_smiles": "CCC(=O)n1ccc2c3c(N)nc(N)nc3ccc21", "melting point": "210 to 212 °C"}
{"query_smiles": "CC(=O)Nc1nc(N)nc2ccc3[nH]ccc3c12", "melting point": "236 to 238 °C"}
{"query_smiles": "Nc1nc(NC(=O)c2ccc3ccccc3c2)nc2ccc3[nH]ccc3c12", "melting point": "234 to 236 °C"}
{"query_smiles": "CCC(=O)Nc1nc(N)c2c(ccc3[nH]ccc32)n1", "melting point": "228 to 230 °C"}
{"query_smiles": "CCCC(=O)Nc1nc(N)nc2ccc3[nH]ccc3c12", "melting point": "224 to 226 °C"}

Data origin: patent US9133203B2
